B1: Far upstream element-binding protein 3, residues 75 to 150; numbered along this chain, Q96I24 (parent)
chain: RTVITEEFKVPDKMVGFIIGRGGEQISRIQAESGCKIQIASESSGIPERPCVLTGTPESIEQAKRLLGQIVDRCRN

Variants of: B1
Assay: abundance fitness (aPCA) (normalised: wild type 0, dead -1); higher = more abundant; growth selection in yeast, the domain comes from the species named
Conditions: Homo sapiens
Binary call on abundance fitness: MET from -0.06 upward, NOT MET beneath that.

Inquiry: Textbook exercise: given the entry `F8N` , state whether its abundance fitness is greater than or equal to -0.06.
Reply text: NOT MET

Inquiry: Check if abundance fitness >= -0.06 (inclusive). Item: `F17R`
Reply text: MET

Inquiry: Is the recorded value of abundance fitness equal to or greater than -0.06 for this variant? `S43P`
Reply text: MET

Inquiry: Check this variant for abundance fitness at or above -0.06: `R65C`
Reply text: NOT MET

Inquiry: Does the variant `S27N` have recorded abundance fitness that is -0.06 or more?
Reply text: MET

Inquiry: Decide: abundance fitness of `V52T` >= -0.06?
Reply text: MET

Inquiry: In plain terms: is recorded abundance fitness at least -0.06 for `G68S` ?
Reply text: NOT MET

Inquiry: Is abundance fitness for `V15K` at or above -0.06?
Reply text: NOT MET

Inquiry: Quick check: does `I4L` have abundance fitness greater than or equal to -0.06?
Reply text: NOT MET

Inquiry: Assess whether reported abundance fitness for `A31K` sits at -0.06 or higher.
Reply text: MET

Inquiry: Decide: is the reported value of abundance fitness for `C35A` equal to or greater than -0.06?
Reply text: MET

Inquiry: Entry `G23I` : is its abundance fitness no less than -0.06?
Reply text: NOT MET

Inquiry: Would you say `S43K` shows abundance fitness at minimum -0.06?
Reply text: NOT MET

Inquiry: Is the recorded value of abundance fitness equal to or greater than -0.06 for this variant? `G16D`
Reply text: MET

Inquiry: Hi team, for `K64F` , is the recorded abundance fitness at or above -0.06?
Reply text: NOT MET

Inquiry: Record `G22I` ; criterion: abundance fitness no lower than -0.06. Met?
Reply text: NOT MET

Inquiry: Hi team, for `I29S` , is the recorded abundance fitness at or above -0.06?
Reply text: NOT MET

Inquiry: In plain terms: is recorded abundance fitness at least -0.06 for `G20A` ?
Reply text: NOT MET

Inquiry: Check the entry `Q30M` : does abundance fitness equal or exceed -0.06?
Reply text: NOT MET

Inquiry: Could you please find out whether `S41F` has abundance fitness that meets -0.06 or exceeds it?
Reply text: NOT MET

Values were extracted from the Human Domainome abundance scans (Beltran et al. 2025).
